# Tested On: hSTING(R232) (Homo sapiens, UniProt Q86WV6, H232R)
# Sequence (Q86WV6 whole entry H232R): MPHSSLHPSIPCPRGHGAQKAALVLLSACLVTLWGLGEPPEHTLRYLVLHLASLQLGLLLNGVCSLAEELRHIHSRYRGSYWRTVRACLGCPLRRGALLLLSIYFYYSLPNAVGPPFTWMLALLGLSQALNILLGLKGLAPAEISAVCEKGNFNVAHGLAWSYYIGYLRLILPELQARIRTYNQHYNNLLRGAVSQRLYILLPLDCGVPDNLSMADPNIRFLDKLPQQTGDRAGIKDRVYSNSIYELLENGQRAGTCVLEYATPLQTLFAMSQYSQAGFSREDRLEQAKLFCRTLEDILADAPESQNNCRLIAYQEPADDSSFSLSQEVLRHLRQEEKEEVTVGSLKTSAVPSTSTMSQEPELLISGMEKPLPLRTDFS
# Experiment Summary: Luciferase reporter assay in HEK293T-hSTING-Luciferase cells, R232 (wild type) human STING
# Type: cell-based
# Settings: 20 hr stimulation, read-out: R232 human activity (EC50 range)
Quantity Name: EC50

| Compound | Tested On | Recorded Value |
| --- | --- | --- |
| CC1c2ccc(C(=O)NCc3c(F)cc(F)cc3F)cc2N(Cc2cc(O)ccc2F)C(=O)N1C (stereo not shown) [Example 231] | hSTING(R232) (Homo sapiens, UniProt Q86WV6, H232R) | < 1 µM |
| COc1cc(F)ccc1CNC(=O)c1ccc2c(c1)N(Cc1c(F)cccc1Cl)C(=O)N(C)C2 [Example 61] | hSTING(R232) (Homo sapiens, UniProt Q86WV6, H232R) | > 10 µM |
| COc1cc(F)c(CN2C(=O)N(C)[C@@H](C)c3ccc(C(=O)NCc4c(F)cc(F)cc4F)cc32)c(Cl)c1 [Example 293] | hSTING(R232) (Homo sapiens, UniProt Q86WV6, H232R) | < 1 µM |
| COc1cc(F)ccc1CN1C(=O)N(C)Cc2ccc(C(=O)NCc3c(F)cc(F)cc3F)cc21 [Example 46] | hSTING(R232) (Homo sapiens, UniProt Q86WV6, H232R) | 1 to 10 µM |

---

# key: entry, value: EC50
# Tested On: hSTING(R232) (Homo sapiens, UniProt Q86WV6, H232R)
# Experiment Summary: Luciferase reporter assay in HEK293T-hSTING-Luciferase cells, R232 (wild type) human STING
# Format: cell-based
# Settings: 20 hr stimulation, read-out: R232 human activity (EC50 range)
Quantity Name: EC50

| Molecule | Tested On | Quantity Name | Recorded Value |
| --- | --- | --- | --- |
| COc1cc(F)ccc1CNC(=O)c1ccc2c(c1)N(Cc1c(F)cccc1Cl)C(=O)N(C)[C@H]2C [Example 247] | hSTING(R232) (Homo sapiens, UniProt Q86WV6, H232R) | EC50 | 1000 to 10000 nM |
| CC1c2ccc(C(=O)NCc3c(F)cc(F)cc3F)cc2N(Cc2c(F)cccc2OS(C)(=O)=O)C(=O)N1C (stereo not shown) [Example 204] | hSTING(R232) (Homo sapiens, UniProt Q86WV6, H232R) | EC50 | < 1000 nM |
| CN1Cc2ccc(C(=O)NCc3c(F)cc(F)cc3F)cc2N(Cc2ccnn2C)C1=O [Example 53] | hSTING(R232) (Homo sapiens, UniProt Q86WV6, H232R) | EC50 | > 10000 nM |
| C[C@H]1c2ccc(C(=O)NCc3c(F)cc(O)cc3F)cc2N(Cc2c(F)cccc2Cl)C(=O)N1C [Example 252] | hSTING(R232) (Homo sapiens, UniProt Q86WV6, H232R) | EC50 | < 1000 nM |

---

Quick list: EC50 per entry.
# Tested On: hSTING(HAQ) (Homo sapiens, UniProt Q86WV6, G230A/H232R/R293Q/R71H)
# Sequence (Q86WV6 whole entry R71H/G230A/H232R/R293Q): as the sequence (Q86WV6 whole entry H232R) above, with R71H, G230A, R293Q counted along it
# Experiment Summary: Luciferase reporter assay in HEK293T-hSTING-Luciferase cells, HAQ polymorph
# Settings: HAQ polymorph of human STING, EC50 range class
# Text: Stable Cell Line Generation • a) Stable STING expressing cells—Stable HEK293T STING-expressing cell lines were generated using plasmids purchased from Invivogen, CA, USA, that contain STING cDNA cloned into the pUNO-1 vector under hEF1-HTLV promoter and containing the Blasticidin selection cassette. […]
Quantity Name: EC50

| Molecule | Quantity Name | Recorded Value |
| --- | --- | --- |
| CC1c2ccc(C(=O)NCc3c(F)cc(F)cc3F)cc2N(Cc2cc(C(N)=O)ccc2F)C(=O)N1C (stereo not shown) | EC50 | > 10000 nM |
| C[C@H]1c2ccc(C(=O)NCc3c(F)cc(F)cc3F)cc2N(Cc2ccc(N)cc2)C(=O)N1C | EC50 | 1000 to 10000 nM |
| C[C@H]1c2ccc(C(=O)NCc3c(F)cc(F)cc3F)cc2N(Cc2c(F)cc(O)cc2Cl)C(=O)N1C | EC50 | < 1000 nM |
| Cc1cc(CN2C(=O)N(C)C(C)c3ccc(C(=O)NCc4c(F)cc(F)cc4F)cc32)c(F)cn1 (stereo not shown) | EC50 | < 1000 nM |
| C[C@H]1c2ccc(C(=O)NCc3c(F)cc(F)cc3F)cc2N(Cc2c(Cl)ccc(F)c2F)C(=O)N1C | EC50 | < 1000 nM |
| Cc1nccc(CN2C(=O)N(C)C(C)c3ccc(C(=O)NCc4c(F)cc(F)cc4F)cc32)c1F (stereo not shown) | EC50 | < 1000 nM |
| C[C@H]1c2ccc(C(=O)NCc3c(F)cc(F)cc3F)cc2N(Cc2c(F)ccc(N)c2Cl)C(=O)N1C | EC50 | < 1000 nM |
| C[C@H]1c2ccc(C(=O)NCc3c(F)cc(F)cc3F)cc2N(Cc2ccc(N=[N+]=[N-])cc2)C(=O)N1C | EC50 | 1000 to 10000 nM |
| C[C@H]1c2ccc(C(=O)NCc3c(F)cc(F)cc3F)cc2N(Cc2c(F)ccc(OCCCO)c2F)C(=O)N1C | EC50 | < 1000 nM |
| CC1c2ccc(C(=O)NCc3ccc(O)cc3)cc2N(Cc2c(F)cccc2Cl)C(=O)N1C (stereo not shown) | EC50 | 1000 to 10000 nM |
| C[C@H]1c2ccc(C(=O)NCc3c(F)cc(F)cc3F)cc2N(Cc2cc(CO)ccc2F)C(=O)N1C (stereo in doubt) | EC50 | 1000 to 10000 nM |
| Cc1cccc(-c2nc(CN3C(=O)N(C)Cc4ccc(C(=O)NCc5c(F)cc(F)cc5F)cc43)c(C)o2)c1 | EC50 | 1000 to 10000 nM |
| C[C@H]1c2ccc(C(=O)NCc3c(F)cc(F)cc3F)cc2N(Cc2c(F)cc(OC[C@@H](O)CO)cc2F)C(=O)N1C | EC50 | < 1000 nM |
| CC(=O)Nc1ccc(COC(=O)Oc2cc(F)c(CN3C(=O)N(C)[C@@H](C)c4ccc(C(=O)NCc5c(F)cc(F)cc5F)cc43)c(F)c2)cc1 | EC50 | < 1000 nM |
| CC1c2ccc(C(=O)NCc3c(F)cc(F)cc3F)cc2N(Cc2c(F)cccc2Br)C(=O)N1C (stereo not shown) | EC50 | < 1000 nM |
| C[C@H]1c2ccc(C(=O)NCc3c(F)cc(F)cc3F)cc2N(Cc2c(F)cc(OCCCO)cc2F)C(=O)N1C | EC50 | < 1000 nM |
| COc1ccc(F)c(F)c1CN1C(=O)N(C)[C@@H](C)c2ccc(C(=O)NCc3c(F)cc(F)cc3F)cc21 | EC50 | < 1000 nM |
| C[C@H]1c2ccc(C(=O)NCc3c(F)cc(F)cc3F)cc2N(Cc2c(F)cc(OCCO)cc2F)C(=O)N1C | EC50 | < 1000 nM |
| Cc1cccc(F)c1CN1C(=O)N(C)C(C)c2ccc(C(=O)NCc3c(F)cc(F)cc3F)cc21 (stereo not shown) [Example 203] | EC50 | < 1000 nM |
| CC1c2ccc(C(=O)NCc3c(F)cc(F)cc3F)cc2N(Cc2c(O)cccc2F)C(=O)N1C (stereo not shown) | EC50 | < 1000 nM |
| CC1c2ccc(C(=O)NCc3c(F)cc(F)cc3F)cc2N(Cc2c(F)cccc2C(F)(F)F)C(=O)N1C (stereo not shown) | EC50 | < 1000 nM |
| C[C@H]1c2ccc(C(=O)NCc3c(F)cc(F)cc3F)cc2N(Cc2c(F)cc(OCCNS(C)(=O)=O)cc2F)C(=O)N1C | EC50 | < 1000 nM |
| COc1cc(F)c(CN2C(=O)N(C)[C@@H](C)c3ccc(C(=O)NCc4c(F)cc(F)cc4F)cc32)c(Cl)c1 | EC50 | < 1000 nM |
| C[C@H]1c2ccc(C(=O)NCc3c(F)cc(F)cc3F)cc2N(Cc2cc(OCCCO)cc(F)c2F)C(=O)N1C | EC50 | < 1000 nM |
| Cc1ccc(Cl)c(CN2C(=O)N(C)[C@@H](C)c3ccc(C(=O)NCc4c(F)cc(F)cc4F)cc32)c1F | EC50 | < 1000 nM |
| COC(=O)c1ccc(F)c(CN2C(=O)N(C)[C@@H](C)c3ccc(C(=O)NCc4c(F)cc(F)cc4F)cc32)c1Cl | EC50 | < 1000 nM |
| CC1c2ncc(C(=O)NCc3c(F)cc(F)cc3F)cc2N(Cc2c(F)cccc2Cl)C(=O)N1C (stereo not shown) | EC50 | < 1000 nM |
| Cc1ncc(Cl)c(CN2C(=O)N(C)[C@@H](C)c3ccc(C(=O)NCc4c(F)cc(F)cc4F)cc32)c1F | EC50 | < 1000 nM |
